Data provenance: ChEMBL document CHEMBL1201862

Reported GI50 values for a set of molecules
- Tested on: HCC 2998
- experiment-description: NCI tumour cell line growth inhibition, 48 h
The source made the active and inactive calls. Rule as the data show it: active = GI50 up to about 1.1 µM and inactive = higher.

# molecule, GI50
data = [
    ("O=C1CC(c2ccccc2)Oc2ccccc21 (stereo not given)", "76.9 µM (inactive)"),
    ("O=C1NC(=S)NC(=O)C1=Cc1ccc2ccccc2n1", "> 100 µM (inactive)"),
    ("C/C=C(/C)c1cnc(CC(C)C)c(=O)[nH]1", "> 100 µM (inactive)"),
    ("C[C@]12CC[C@H](O)CC1=CC[C@@H]1[C@@H]2CC[C@]2(C)C(=O)[C@@H](N3CCOCC3)C[C@@H]12", "> 100 µM (inactive)"),
    ("Cn1cc(C(=O)C2CCCCC2)ccc1=O", "> 100 µM (inactive)"),
]

* * *

- Tested on: OVCAR-8
- experiment-description: NCI tumour cell line growth inhibition, 48 h
Calls of active or inactive are those of the source. No stated cut-off is given here; in the data, active = GI50 up to about 1.1 µM and inactive = higher.

# compound, system-tested, GI50
measured = [
    ("CSc1ccc(/C=C2\\N=C(c3ccccc3)N(NC(=O)c3c(Cl)c(Cl)c(Cl)c(Cl)c3-c3nc4ccccc4[nH]3)C2=O)cc1", "OVCAR-8", "37.8 µM (inactive)"),
    ("NC1=NS(=O)(=O)N=C(N)C1=Cc1ccc([N+](=O)[O-])o1", "OVCAR-8", "17.3 µM (inactive)"),
    ("CC(C)=CCc1c2c(c(O)c3c(=O)c4c(oc13)-c1ccc(O)cc1OC4C=C(C)C)C=CC(C)(C)O2 (stereo unspecified)", "OVCAR-8", "13.3 µM (inactive)"),
    ("CC(C)(C)OC(=O)C1=C(O)C(C(=O)OC(C)(C)C)C23CCCCC12C(C(=O)OC(C)(C)C)C(O)=C3C(=O)OC(C)(C)C (stereo unspecified)", "OVCAR-8", "> 100 µM (inactive)"),
    ("COc1ccc(CCc2nccn2C)cc1OC", "OVCAR-8", "> 100 µM (inactive)"),
    ("CC(/C=C/c1ccc([N+](=O)[O-])o1)=N/N1CC(CN2CCOCC2)OC1=O (stereo unspecified)", "OVCAR-8", "16.5 µM (inactive)"),
    ("CCN(CC)CCOC(NC(C)=O)(c1ccccc1)c1ccccc1", "OVCAR-8", "> 100 µM (inactive)"),
    ("Cn1cnc([N+](=O)[O-])c1Sc1nc(N)nc2c1ncn2[C@H]1C[C@H](O)[C@@H](CO)O1", "OVCAR-8", "2.51 µM (inactive)"),
    ("O=C1c2ccccc2C2(c3ccc(Cl)cc3)NCc3ccccc3CN12 (stereo unspecified)", "OVCAR-8", "23.1 µM (inactive)"),
    ("CC1(C)Oc2ccccc2N2O[C@@H]3C(=O)N(c4ccccc4)C(=O)[C@@H]3C21c1ccccc1 (stereo partly specified)", "OVCAR-8", "> 10 µM (inactive)"),
    ("CSc1c(C#N)c(O)n(-c2ccc(C)cc2)c(=O)c1C#N", "OVCAR-8", "> 100 µM (inactive)"),
    ("[O-]/N=[N+](/[O-])C1CCCCC1=[N+]1CCOCC1 (stereo unspecified)", "OVCAR-8", "> 100 µM (inactive)"),
    ("COP(=O)(OC)C12CCOCCN1c1ccccc1C2=O (stereo unspecified)", "OVCAR-8", "> 100 µM (inactive)"),
    ("COc1ccc(-c2ccccc2)c(N/N=C2\\CCCNC2=O)c1", "OVCAR-8", "> 100 µM (inactive)"),
    ("CNc1ccc2ncccc2c1[N+](=O)[O-]", "OVCAR-8", "> 100 µM (inactive)"),
    ("COC(=O)c1cc(/C=C/C(=O)Cc2ccccc2)cn1S(=O)(=O)c1ccccc1", "OVCAR-8", "> 100 µM (inactive)"),
    ("c1ccc(NNN2NC(c3ccccc3)C2c2ccccc2)cc1 (stereo unspecified)", "OVCAR-8", "> 100 µM (inactive)"),
    ("O=C(c1cc2ccccc2[nH]1)C(O)(c1cc2ccccc2[nH]1)c1cc2ccccc2[nH]1", "OVCAR-8", "> 246 µM (inactive)"),
    ("CCOC(=O)c1c2ccccc2n2c(=O)n(-c3ccc(OC)cc3)nnc12", "OVCAR-8", "20.6 µM (inactive)"),
    ("O=C(/C=C/c1ccc(C(F)(F)F)cc1)c1c([O-])on[n+]1-c1ccccc1", "OVCAR-8", "1.92 µM (inactive)"),
    ("Cc1ccc([S+]([O-])c2sccc2C=O)cc1 (stereo unspecified)", "OVCAR-8", "23.1 µM (inactive)"),
]
